tested on: Hepatitis C virus; test: Antiviral activity against HCV genotype 1b infected in human HuH7 cells after 3 days by luciferase reporter gene assay; type: functional, organism-based, Hepacivirus hominis; conditions: Huh-7, 72 h
TEST_READOUT: EC50

CCOc1ccccc1NC(=O)c1c(NCCO)cc(-c2ccc(Br)cc2)oc1=O :: > 20 µM
COc1ccccc1NC(=O)c1c(NCCO)cc(-c2cccs2)oc1=O :: > 20 µM
O=C(Nc1ccccc1O)c1c(NCCO)cc(-c2ccccc2)oc1=O :: > 20 µM
O=C(NCCO)c1c(N2CCCCC2)cc(-c2ccc(F)cc2)oc1=O :: > 100 µM
CONc1cc(-c2ccc(C)cc2)oc(=O)c1C(=O)NCCCO :: > 100 µM

# evaluate next
Input line: Give recorded EC50. CCOc1ccccc1NC(=O)c1c(NCCO)cc(-c2cccc(Br)c2)oc1=O
Output line: > 20 µM

Origin of the recorded values: ChEMBL document CHEMBL3632518
